B1: peptide HD2 (from tick evasin EVA4) / CXCL14 (biotinylated, synthetic) (parent)
chain 1: EEDDYTAYAPLTCYFT
chain 2: SKCKCSRKGPKIRYSDVKKLEMKPKYPHCEEKMVIITTKSVSRYRGQEHCLHPKLQSTKRFIKWYNAWNEKRRVYEE

Variants of: B1
Conditions: with CXCL14 (biotinylated, synthetic); scale: log2
measurement.label: enrichment

seq_string="chain 1 EEDDYTARAPLTCYFT [chain 1 Y8R]" observed_value=-6.45
seq_string="chain 1 EEDDYTAYAYLTCYFT [chain 1 P10Y]" observed_value=-6.83
seq_string="chain 1 EEDTYTAYAPLTCYFT [chain 1 D4T]" observed_value=-6.14
seq_string="chain 1 EEVDYTAYAPLTCYFT [chain 1 D3V]" observed_value=-7.6

Provide enrichment for all items below, preserving their order.
1. chain 1 EEDDYTAYAPGTCYFT [chain 1 L11G]
2. chain 1 EEDDYTAYAPLTCIFT [chain 1 Y14I]
3. chain 1 EEDVYTAYAPLTCYFT [chain 1 D4V]
4. chain 1 EEDDYTAYAPLTCYKT [chain 1 F15K]
5. chain 1 EEDHYTAYAPLTCYFT [chain 1 D4H]
6. chain 1 EEDAYTAYAPLTCYFT [chain 1 D4A]

Data returned:
1. -8.51
2. -5.53
3. -8.11
4. -5.27
5. -6.03
6. -6.34

Provide enrichment for all items below, preserving their order.
1. chain 1 EEDDYTAYAPETCYFT [chain 1 L11E]
2. chain 1 EEDDYTAYAPLTCYDT [chain 1 F15D]
3. chain 1 EEADYTAYAPLTCYFT [chain 1 D3A]
4. chain 1 EEDQYTAYAPLTCYFT [chain 1 D4Q]
5. chain 1 EEDDYTAYAPLTCMFT [chain 1 Y14M]
6. chain 1 EEDCYTAYAPLTCYFT [chain 1 D4C]

Data returned:
[-6.43, -6.86, -5.29, -4.74, -7.23, -7.5]

Provide enrichment for all items below, preserving their order.
1. chain 1 EEDDYTACAPLTCYFT [chain 1 Y8C]
2. chain 1 EEWDYTAYAPLTCYFT [chain 1 D3W]
3. chain 1 EELDYTAYAPLTCYFT [chain 1 D3L]
4. chain 1 EEDDYTAKAPLTCYFT [chain 1 Y8K]
5. chain 1 EEDKYTAYAPLTCYFT [chain 1 D4K]
6. chain 1 EEDRYTAYAPLTCYFT [chain 1 D4R]

Data returned:
1. -7.94
2. -5.18
3. -8.51
4. -4.33
5. -5.14
6. -5.35

Provide enrichment for all items below, preserving their order.
1. chain 1 EEDDYTAYAPLTCGFT [chain 1 Y14G]
2. chain 1 EEDDYTAYAPLTCFFT [chain 1 Y14F]
3. chain 1 EEDDYTAYAPLTCKFT [chain 1 Y14K]
4. chain 1 EEDDYTAYACLTCYFT [chain 1 P10C]

Data returned:
1: -8.76; 2: -6.35; 3: -6.43; 4: -7.98
